Reference source: patent US20210070748A1

assay_system: SRC (Homo sapiens, UniProt P12931)
Sequence (P12931 whole entry): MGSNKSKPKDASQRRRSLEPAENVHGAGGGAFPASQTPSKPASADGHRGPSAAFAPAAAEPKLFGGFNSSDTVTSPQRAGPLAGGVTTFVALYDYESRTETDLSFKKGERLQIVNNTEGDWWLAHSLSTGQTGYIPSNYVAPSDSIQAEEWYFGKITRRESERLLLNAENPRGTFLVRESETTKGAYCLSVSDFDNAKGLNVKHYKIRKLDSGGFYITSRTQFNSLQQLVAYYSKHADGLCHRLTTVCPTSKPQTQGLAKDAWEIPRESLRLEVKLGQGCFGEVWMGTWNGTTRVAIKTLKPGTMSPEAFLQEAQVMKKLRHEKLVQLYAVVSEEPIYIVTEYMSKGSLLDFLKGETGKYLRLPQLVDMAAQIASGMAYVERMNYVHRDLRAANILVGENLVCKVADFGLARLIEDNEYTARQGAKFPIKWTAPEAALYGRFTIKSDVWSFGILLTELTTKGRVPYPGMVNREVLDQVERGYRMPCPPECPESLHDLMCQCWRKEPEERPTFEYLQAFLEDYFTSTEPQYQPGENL
protocol_summary: Inhibition of a panel of kinases, in vitro HotSpot kinase assay: SRC
Assay type: biochemical
experimental_context: D-compounds panel data; 1 μM ATP
pIC50: −log10 of the molar value.
Recorded pIC50 values for a group of compounds are listed next.
measure_name: pIC50

INSERT INTO measurements (compound, result) VALUES
  ('C[C@@H]1CC[C@H](NC(=O)N(C)C)CN1c1cnc(C(N)=O)c(Nc2cnn(C)c2)n1 [Example D-151]', '6.00 to 7.00'),
  ('CN(C)c1ccc2c(=O)n([C@@H]3CCCN(c4cnc(C(N)=O)c(Nc5cnn(C)c5)n4)C3)ccc2c1 [Example D-155]', '6.00 to 7.00'),
  ('C[C@@H]1[C@H](NC(=O)c2ccc(N(C)C)cc2)CCCN1c1cnc(C(N)=O)c(Nc2ccc(C3(C)CCN(C4CCCC4)CC3)cc2)n1 [Example D-183]', '≥ 8.00'),
  ('Cc1nn(C)cc1Nc1nc(N2CCC[C@@H](NC(=O)c3ccc(C4CC4)cc3)[C@H]2C)cnc1C(N)=O [Example D-272]', '< 5.00'),
  ('C[C@@H]1[C@H](NC(=O)N(C)C)CCCN1c1cnc(C(N)=O)c(Nc2ccc(OC3CCN(C4CCCC4)CC3)cc2)n1 [Example D-102]', '7.00 to 8.00'),
  ('C[C@@H]1[C@H](NC(=O)c2ccc(C3CC3)nc2)CCCN1c1cnc(C(N)=O)c(Nc2ccc(OC3CCN(C)CC3)cc2)n1 [Example D-294]', '7.00 to 8.00'),
  ('C[C@@H]1[C@H](NC(=O)c2ccc(C3CC3)cc2)CCCN1c1cnc(C(N)=O)c(Nc2ccc(N3CCN(C)CC3)cc2)n1 [Example D-81]', '7.00 to 8.00'),
  ('C[C@@H]1[C@H](NC(=O)c2ccc(C(C)(C)N(C)C)cc2)CCCN1c1cnc(C(N)=O)c(Nc2cnn(C)c2)n1 [Example D-108]', '7.00 to 8.00'),
  ('CN(C)C(=O)N[C@H]1CCCN(c2cnc(C(N)=O)c(Nc3ccc4ncccc4c3)n2)[C@H]1CO (racemic) [Example D-65]', '5.00 to 6.00'),
  ('Cc1ccc(C(=O)N[C@@H]2CCCN(c3cnc(C(N)=O)c(Nc4cnn(C)c4)n3)[C@@H]2C)cc1 [Example D-232]', '7.00 to 8.00'),
  ('C[C@@H]1[C@H](NC(=O)c2ccc(C3CC3)cc2)CCCN1c1cnc(C(N)=O)c(Nc2cn(C)nc2C(F)(F)F)n1 [Example D-278]', '< 5.00'),
  ('C[C@@H]1[C@H](NC(=O)c2ccc(C3CC3)cc2F)CCCN1c1cnc(C(N)=O)c(Nc2ccc(N3CCN(C)CC3)nc2)n1 [Example D-13]', '6.00 to 7.00'),
  ('C[C@@H]1[C@H](NC(=O)c2ccc(C(C)(C)C)cc2)CCCN1c1cnc(C(N)=O)c(Nc2ccc(OC3CCN(C)CC3)cc2)n1 [Example D-291]', '7.00 to 8.00');

----------
Quick reference for pIC50 among some molecules
assay_system: UniProt:P00533
Sequence (P00533 25-1210): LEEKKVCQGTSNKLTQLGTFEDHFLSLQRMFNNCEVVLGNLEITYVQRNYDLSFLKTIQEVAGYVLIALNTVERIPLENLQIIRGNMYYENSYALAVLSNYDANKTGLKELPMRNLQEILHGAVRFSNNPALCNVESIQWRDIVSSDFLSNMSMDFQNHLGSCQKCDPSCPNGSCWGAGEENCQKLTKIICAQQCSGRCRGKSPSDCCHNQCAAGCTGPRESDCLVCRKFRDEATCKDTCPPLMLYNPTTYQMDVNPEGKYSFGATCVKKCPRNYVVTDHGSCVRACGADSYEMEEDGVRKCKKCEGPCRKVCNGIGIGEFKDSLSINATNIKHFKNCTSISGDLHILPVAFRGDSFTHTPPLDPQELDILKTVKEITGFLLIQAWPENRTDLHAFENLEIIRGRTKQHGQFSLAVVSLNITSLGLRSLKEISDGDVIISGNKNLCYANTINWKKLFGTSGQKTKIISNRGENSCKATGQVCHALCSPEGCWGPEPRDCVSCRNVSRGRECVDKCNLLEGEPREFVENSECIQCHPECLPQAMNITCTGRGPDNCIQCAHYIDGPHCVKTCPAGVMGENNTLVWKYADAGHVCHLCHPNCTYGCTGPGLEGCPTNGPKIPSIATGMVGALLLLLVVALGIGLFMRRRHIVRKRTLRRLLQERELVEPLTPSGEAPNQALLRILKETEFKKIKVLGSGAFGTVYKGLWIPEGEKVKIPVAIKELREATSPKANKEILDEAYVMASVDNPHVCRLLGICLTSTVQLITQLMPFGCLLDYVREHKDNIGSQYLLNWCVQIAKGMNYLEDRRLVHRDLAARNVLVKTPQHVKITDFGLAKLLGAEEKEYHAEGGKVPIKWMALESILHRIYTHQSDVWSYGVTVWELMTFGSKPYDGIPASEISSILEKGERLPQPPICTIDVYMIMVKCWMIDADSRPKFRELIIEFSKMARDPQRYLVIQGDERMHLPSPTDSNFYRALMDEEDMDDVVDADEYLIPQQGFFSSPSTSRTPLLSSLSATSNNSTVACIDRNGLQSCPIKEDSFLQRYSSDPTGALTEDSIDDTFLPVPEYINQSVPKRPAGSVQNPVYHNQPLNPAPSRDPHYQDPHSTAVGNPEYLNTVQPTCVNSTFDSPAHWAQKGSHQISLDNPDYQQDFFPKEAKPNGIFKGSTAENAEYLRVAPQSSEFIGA
protocol_summary: Inhibition of a panel of kinases, in vitro HotSpot kinase assay: EGFR
Assay type: biochemical
experimental_context: D-compounds panel data; 1 μM ATP
pIC50: −log10 of the molar value.
measure_name: pIC50

INSERT INTO assay_data (structure_as_smiles, result) VALUES
  ('Cc1cc(Nc2nc(N3CCC[C@@H](n4ccc5cc(C6CC6)ccc5c4=O)C3)cnc2C(N)=O)sn1', '< 5.00'),
  ('C[C@@H]1[C@H](NC(=O)c2ccc(C3CC3)cc2)CCCN1c1cnc(C(N)=O)c(Nc2ccc(N3CCN(C)CC3)cc2F)n1', '6.00 to 7.00'),
  ('CN1CCC(n2cc(Nc3nc(N4CCC[C@@H](n5ccc6cc(C7CC7)ccc6c5=O)C4)cnc3C(N)=O)cn2)CC1', '5.00 to 6.00'),
  ('Cc1cc(Nc2cc(N3CCC[C@@H](NC(=O)c4ccc(C5CC5)cc4F)[C@H]3C)cnc2C(N)=O)sn1', '5.00 to 6.00'),
  ('C[C@@H]1[C@H](NC(=O)N(C)C2CC2)CCCN1c1cnc(C(N)=O)c(Nc2cnn(C)c2)n1', '5.00 to 6.00'),
  ('CC(C)c1ccc(C(=O)N[C@@H]2CCCN(c3cnc(C(N)=O)c(Nc4cnn(C)c4)n3)[C@@H]2C)cc1', '5.00 to 6.00'),
  ('C[C@@H]1[C@H](NC(=O)c2ccc(C3CC3)cc2)CCCN1c1cnc(C(N)=O)c(Nc2ccc(N3CCC(F)(F)CC3)cc2)n1', '< 5.00');
